Reference source: patent US10196345B2

Target: recombinant human MAO-B (Homo sapiens)
Assay: Cell-free Fluorescent Monoamine Oxidase A&B Detection Assay, MAO-B
Assay type: biochemical
Conditions: IC50 MAO-B (μM)
Experimental: The assay was repeated to confirm data. MAO B specific inhibitory activity and selectivity over MAO A is assayed using a commercial kit [Fluoro MAO A and B detection kit (Cell Technology Inc™)]. This kit uses a non-fluorescent detection reagent to measure H2O2 released from the conversion of an MAO A and MAO B substrate specific to its aldehyde. Furthermore, H2O2 oxidizes the detection reagent in a 1:1 stoichiometry to produce a fluorescent product (resorufin). […]
measuredQuantity: IC50 (µM)
Give bare numbers, in µM.

Param item = `C#CCN(C)CCc1ccccc1` ; retrieve measured IC50.
0.0107

---

Exercise: state measured IC90 for each of the compounds provided.
Target: recombinant human MAO-B (Homo sapiens, UniProt P27338)
Sequence (P27338 1-520): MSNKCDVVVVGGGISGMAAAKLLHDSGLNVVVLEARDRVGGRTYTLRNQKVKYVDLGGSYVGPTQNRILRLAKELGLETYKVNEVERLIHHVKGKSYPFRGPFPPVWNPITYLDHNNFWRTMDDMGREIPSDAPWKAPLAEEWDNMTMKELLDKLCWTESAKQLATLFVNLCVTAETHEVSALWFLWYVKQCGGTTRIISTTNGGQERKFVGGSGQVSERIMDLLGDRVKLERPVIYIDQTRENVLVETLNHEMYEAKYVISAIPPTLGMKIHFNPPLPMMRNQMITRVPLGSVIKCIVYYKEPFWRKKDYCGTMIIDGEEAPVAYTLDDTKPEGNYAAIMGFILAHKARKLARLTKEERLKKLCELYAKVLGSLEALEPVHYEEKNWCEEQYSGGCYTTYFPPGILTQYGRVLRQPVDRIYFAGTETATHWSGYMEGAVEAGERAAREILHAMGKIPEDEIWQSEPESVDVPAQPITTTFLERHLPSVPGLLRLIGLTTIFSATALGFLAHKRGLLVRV
Assay: Cell-free Fluorescent Monoamine Oxidase A&B Detection Assay, MAO-B
Format: biochemical
Structures can show the parent of a compound that is named as a salt.
I'd appreciate it if you wrote the number followed by its unit.

Some solved entries appear below for comparison.
- compound: "CN(CC(=O)O)[C@H](CCO)Cc1ccc(OCc2ccccc2)cc1.Cl"
  valueMeasured: "167 µM"
- compound: "CN(CCc1ccc(OCc2ccccc2)cc1)CC(=O)O.Cl [PS-RG0064, hydrochloride]"
  valueMeasured: "252 µM"
- compound: "C[C@H](Cc1ccc(OCc2ccc3ccccc3c2)cc1)N(C)CC(=O)O [PS-RG0227, hydrochloride]"
  valueMeasured: "843 µM"
- compound: "CN(CC(=O)O)[C@H](CC#N)Cc1ccc(OCc2ccc(Cl)c(Cl)c2)cc1.Cl"
  valueMeasured: "1.03 µM"
- compound: "C[C@H](Cc1ccc(OCc2ccccc2Cl)cc1)N(C)CC(=O)O [PS-RG0121, hydrochloride]"
  valueMeasured: "8.13 µM"

# per-item lookup of IC90; items listed below
1. C[C@H](Cc1ccc(OCc2ccccc2)cc1)N(C)CC(=O)O [PS-RG0031A, hydrochloride]
2. C[C@H](Cc1ccc(OCc2ccc(C#N)cc2)cc1)N(C)CC(=O)O.Cl [PS-AD0065, hydrochloride]
3. CN(CC(=O)O)c1ccc(CCOCc2ccccc2)cc1.Cl

["30.5 µM", "81.1 µM", "708 µM"]

---

Test system: Madin Darby canine kidney (MDCK-I) cells
Test: TEER in MDCK-I cells
Type: cell-based
Conditions: no concentration given
measuredQuantity: effect on TEER (MAO A, B, AB inhibitors)

Some solved entries appear below for comparison.
- compound: "C#CCN(C)[C@H](C)Cc1ccccc1"
  valueMeasured: "increased TEER"
- compound: "C#CCN(C)Cc1ccccc1"
  valueMeasured: "increased TEER"
- compound: "NNCCc1ccccc1"
  valueMeasured: "increased TEER"
- compound: "O=C(NCCN1CCOCC1)c1ccc(Cl)cc1 [moclobemide]"
  valueMeasured: "generally reduced TEER"

Then there is this compound:
Param item = `C#CCN(C)CCCOc1ccc(Cl)cc1Cl` ; retrieve measured effect on TEER (MAO A, B, AB inhibitors).
generally reduced TEER

---

Exercise: state measured IC90 for each of the compounds provided.
Biological target: recombinant human MAO-B (Homo sapiens, UniProt P27338)
Assay: Cell-free Fluorescent Monoamine Oxidase A&B Detection Assay, MAO-B
Format: biochemical
Counter-ions that a name gives are not always drawn.
Answers are plain numbers, in µM.

- compound: "C#CCN(C)[C@H](C)Cc1ccc(OCc2ccccc2)cc1 [PS-RG0061]"
  IC90 / µM: 0.023
- compound: "C[C@H](Cc1ccc(OCc2ccccc2C#N)cc1)N(C)CC(=O)O.Cl [PS-RG0171, hydrochloride]"
  IC90 / µM: 1080
- compound: "C[C@H](Cc1ccc(OCc2ccccn2)cc1)N(C)CC(=O)O.Cl.Cl [PS-RG0217, hydrochloride]"
  IC90 / µM: 577
- compound: "C[C@H](Cc1ccc(OCc2ccc(Cl)c(Cl)c2)cc1)N(C)CC(=O)O.Cl [PS-RG0245, hydrochloride]"
  IC90 / µM: 0.873

# per-item lookup of IC90; items listed below
1. COC(=O)c1ccc(COc2ccc(C[C@@H](C)N(C)CC(=O)O)cc2)cc1.Cl [PS-RG0246, hydrochloride]
2. C[C@H](Cc1ccc(OCc2ccc(C(=O)O)cc2)cc1)N(C)CC(=O)O.Cl [PS-AD0065 B, hydrochloride]
3. C[C@H](Cc1ccc(OCc2cccc(C#N)c2)cc1)N(C)CC(=O)O.Cl [PS-RG0172, hydrochloride]

1: 10600; 2: 149; 3: 1840

# per-item lookup of IC90; items listed below
1. C[C@H](Cc1ccc(OCc2ccc(Br)c(Cl)c2)cc1)N(C)CC(=O)O.Cl [PS-RG0216, hydrochloride]
2. C[C@H](Cc1ccc(OCCc2ccccc2)cc1)N(C)CC(=O)O.Cl [PS-RG0247]
3. COC(=O)[C@H](Cc1ccc(OCc2ccccc2)cc1)N(C)CC(=O)O.Cl [PS-RG0123, hydrochloride]
4. C[C@H](Cc1ccc(OCc2cc(Cl)ccc2Cl)cc1)N(C)CC(=O)O.Cl [PS-AD0064, hydrochloride]
5. C[C@H](Cc1ccc(OCc2ccc(Cl)cc2)cc1)N(C)CC(=O)O [PS-RG0226, hydrochloride]
6. CN(CC(=O)O)[C@H](CC#N)Cc1ccc(OCc2ccccc2)cc1.Cl [PS-AD0186]
7. CN(CC(=O)O)Cc1cc(=O)oc2cc(OCc3ccccc3)ccc12.Cl [PS-RG0098, hydrochloride]

1: 1.02; 2: 619; 3: 354; 4: 25.8; 5: 3.42; 6: 4.44; 7: 4.1

---

Biological target: recombinant human MAO-B (Homo sapiens)
Assay: Cell-free Fluorescent Monoamine Oxidase A&B Detection Assay, MAO-B
Type: biochemical
Conditions: read-out: IC50 MAO-B
Counter-ions that a name gives are not always drawn.
Rule: measured IC50 below 10 µM gets class 1; anything equal to or greater than 10 µM gets class 0.

- molecule: "C#CCN(C)[C@H](C)Cc1ccc(OCc2ccccc2)cc1"
  experimentalTarget: "recombinant human MAO-B (Homo sapiens)"
  discreteLabel: "class 1"
- molecule: "C[C@H](Cc1ccc(OCc2ccccn2)cc1)N(C)CC(=O)O.Cl.Cl [PS-RG0217, hydrochloride]"
  experimentalTarget: "recombinant human MAO-B (Homo sapiens)"
  discreteLabel: "class 0"
- molecule: "C[C@H](Cc1ccc(OCc2ccccc2C#N)cc1)N(C)CC(=O)O.Cl [PS-RG0171, hydrochloride]"
  experimentalTarget: "recombinant human MAO-B (Homo sapiens)"
  discreteLabel: "class 0"
- molecule: "C[C@H](Cc1ccc(OCc2ccc3ccccc3c2)cc1)N(C)CC(=O)O [PS-RG0227, hydrochloride]"
  experimentalTarget: "recombinant human MAO-B (Homo sapiens)"
  discreteLabel: "class 0"
- molecule: "C[C@H](Cc1ccc(OCc2ccc(Cl)cc2)cc1)N(C)CC(=O)O [PS-RG0226, hydrochloride]"
  experimentalTarget: "recombinant human MAO-B (Homo sapiens)"
  discreteLabel: "class 1"

Is IC50 strictly under 10 µM for the entry C[C@H](Cc1ccc(OCc2cccc(F)c2)cc1)N(C)CC(=O)O.Cl [PS-RG0173, hydrochloride] ?
class 1

Is IC50 strictly under 10 µM for the entry `C[C@H](Cc1ccc(OCCc2ccccc2)cc1)N(C)CC(=O)O.Cl` ?
class 0

Is IC50 strictly under 10 µM for the entry COc1cccc(COc2ccc(C[C@@H](C)N(C)CC(=O)O)cc2)c1 [PS-RG0264, hydrochloride] ?
class 1

Is IC50 strictly under 10 µM for the entry C[C@H](Cc1ccc(Oc2ccccc2)cc1)N(C)CC(=O)O [PS-RG0008, hydrochloride] ?
class 0

Is IC50 strictly under 10 µM for the entry `CN(CC(=O)O)[C@H](CO)Cc1ccc(OCc2ccccc2)cc1` ?
class 1

Is IC50 strictly under 10 µM for the entry C[C@H](Cc1ccc(OCc2cc(Cl)ccc2Cl)cc1)N(C)CC(=O)O.Cl [PS-AD0064, hydrochloride] ?
class 1
